This collection of values is drawn from ChEMBL document CHEMBL5046279.

As shown below, each of these compounds has a reported log10 of solubility value.
Test: Aqueous solubility of the compound at pH 6.5 using amorphous form of sample
Type: physicochemical
Conditions: aqueous solution
Hey, these are logged values: log10 of solubility, µg/mL being the unit before logging.

Below are worked cases with known answers.
Entry CCOP(=O)(Cn1ccc(NC(=O)c2cc(Oc3cnc(C(=O)N4CCC4)nc3)cc(OC(C)C)c2)n1)OCC ; log10 of solubility = 2.36

Record CCO[P@](C)(=O)Cn1ccc(NC(=O)c2cc(Oc3ccc(S(C)(=O)=O)cc3)cc(O[C@@H](C)COC)c2)n1 , field log10 of solubility: 2.74

Further cases:
Form field log10 of solubility, entry CCOP(=O)(Cn1ccc(NC(=O)c2cc(Oc3ccc(S(C)(=O)=O)cc3)cc(O[C@@H](C)CF)c2)n1)OCC : 0.00

The measured log10 of solubility associated with CCOP(=O)(Cn1ccc(NC(=O)c2cc(Oc3ccc(C(=O)N4CCC4)cn3)cc(OC(C)C)c2)n1)OCC reads 2.47

# log10 of solubility (compound: CCOP(=O)(Cn1ccc(NC(=O)c2cc(Oc3ccc(S(=O)(=O)C(C)C)cc3)cc(OC(C)C)c2)n1)OCC ) is 0.48

Kindly note the recorded log10 of solubility for CCOP(=O)(Cn1ccc(NC(=O)c2cc(Oc3cnc(C(=O)N(C)C)cn3)cc(OC(C)C)c2)n1)OCC , which is 2.99

Measured log10 of solubility of CCOP(=O)(Cn1ccc(NC(=O)c2cc(Oc3ccc(S(C)(=O)=O)nn3)cc(OC(C)C)c2)n1)OCC : 3.58

response.value for CCOP(=O)(Cn1ccc(NC(=O)c2cc(Oc3cnc(S(C)(=O)=O)nc3)cc(OC(C)C)c2)n1)OCC (field: log10 of solubility) = 2.67

Consider CCOP(=O)(Cn1ccc(NC(=O)c2cc(Oc3cnc(C(=O)N4CCC4)cn3)cc(OC(C)C)c2)n1)OCC . Its measured log10 of solubility is 1.00

Value of log10 of solubility reported for the compound CCOP(=O)(Cn1ccc(NC(=O)c2cc(Oc3ccc(C(=O)N4CCC4)nc3)cc(OC(C)C)c2)n1)OCC is 1.59

// log10 of solubility lookup, compound = CCOP(=O)(Cc1cnc(NC(=O)c2cc(Oc3ccc(S(C)(=O)=O)cc3)cc(O[C@@H](C)COC)c2)cn1)OCC , result: 2.21

Documented log10 of solubility of CCOP(=O)(Cn1ccc(NC(=O)c2cc(Oc3ccc(S(C)(=O)=O)cc3)cc(O[C@@H](C)CO)c2)n1)OCC : 0.85

Item: CCOP(=O)(Cn1ccc(NC(=O)c2cc(Oc3ccc(S(C)(=O)=O)cc3)cc(O[C@@H](C)COC)c2)n1)OCC | log10 of solubility: 2.38

Reported log10 of solubility of CCOP(=O)(Cn1ccc(NC(=O)c2cc(Oc3ccc(S(=O)(=O)N4CCC4)cc3)cc(OC(C)C)c2)n1)OCC : 0.30

Noted for CCOP(=O)(Cn1ncc(NC(=O)c2cc(Oc3ccc(S(C)(=O)=O)cc3)cc(O[C@@H](C)COC)c2)n1)OCC : its log10 of solubility reads 0.70

Lookup result for CCOP(=O)(Cn1ccc(NC(=O)c2cc(Oc3ccc(C(=O)N4CCC4)nn3)cc(OC(C)C)c2)n1)OCC ; measured log10 of solubility: 2.61
